system name: ratAChE (Rattus norvegicus, UniProt P37136)
Construct: AChE from 5% rat cortex homogenate or human erythrocytes (Sigma Co.); from tissue; host or cells: 5% rat cortex homogenate
Sequence (P37136 32-614): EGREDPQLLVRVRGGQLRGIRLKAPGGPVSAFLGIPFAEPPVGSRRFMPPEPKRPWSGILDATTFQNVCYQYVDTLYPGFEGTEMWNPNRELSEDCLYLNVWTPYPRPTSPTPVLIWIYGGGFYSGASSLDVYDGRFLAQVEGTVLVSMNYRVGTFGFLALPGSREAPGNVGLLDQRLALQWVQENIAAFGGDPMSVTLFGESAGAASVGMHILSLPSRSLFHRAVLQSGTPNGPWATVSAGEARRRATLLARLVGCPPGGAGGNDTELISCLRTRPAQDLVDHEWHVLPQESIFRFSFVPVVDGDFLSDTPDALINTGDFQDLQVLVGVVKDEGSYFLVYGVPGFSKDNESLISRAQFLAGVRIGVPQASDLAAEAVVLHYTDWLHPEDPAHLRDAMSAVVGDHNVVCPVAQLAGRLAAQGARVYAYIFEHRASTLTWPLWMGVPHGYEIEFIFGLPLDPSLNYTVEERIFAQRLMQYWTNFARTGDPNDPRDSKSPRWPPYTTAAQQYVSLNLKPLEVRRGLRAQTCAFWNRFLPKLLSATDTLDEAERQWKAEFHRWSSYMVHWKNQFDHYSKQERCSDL
method: biochemical
test conditions: Selectivity Index = IC50 (BuChE)/IC50 (AChE), rat enzymes
readout: SI
// print number alone

[Q] Given O=C1CC(c2ccc(OCCCCN3CCc4ccccc4C3)cc2)Oc2cc(OCCCCN3CCc4ccccc4C3)cc(O)c21 (centres unmarked) , state its recorded SI.
[A] 3.8

[Q] Entry O=c1cc(-c2ccc(OCCCCN3CCC(Cc4ccccc4)CC3)cc2)oc2cc(OCCCCN3CCC(Cc4ccccc4)CC3)cc(O)c12 [Compound 10j] please
[A] 8.7

[Q] Please do the same for CCN(CCCCCCOc1ccc(C2CC(=O)c3c(O)cc(OCCCCCCN(CC)Cc4ccccc4)cc3O2)cc1)Cc1ccccc1 (centres unmarked) as well.
[A] 6.9

[Q] Please do the same for O=C1CC(c2ccc(O)cc2)Oc2cc(OCCCCCN3CCC(Cc4ccccc4)CC3)cc(O)c21 (centres unmarked) as well.
[A] 7.5

[Q] Check CCN(CCCCCCCCCCOc1cc(O)c2c(c1)OC(c1ccc(O)cc1)CC2=O)Cc1ccccc1 (centres unmarked) too.
[A] 3.0

[Q] Another molecule: O=c1cc(-c2ccc(OCCCN3CCc4ccccc4C3)cc2)oc2cc(OCCCN3CCc4ccccc4C3)cc(O)c12 [Compound 10a]
[A] 2.1

[Q] Then this molecule: CCN(CCCCCOc1ccc(-c2cc(=O)c3c(O)cc(OCCCCCN(CC)Cc4ccccc4OC)cc3o2)cc1)Cc1ccccc1OC [Compound 10l]
[A] 23.2

[Q] Consider next the molecule CCN(CCCCCOc1cc(O)c2c(c1)OC(c1ccc(O)cc1)CC2=O)Cc1ccccc1 (centres unmarked) in the same way.
[A] 9.9

###

Can you tell me pIC50 for the items I'm about to list?
system name: ratAChE (Rattus norvegicus)
Construct: AChE from 5% rat cortex homogenate or human erythrocytes (Sigma Co.); from tissue; host or cells: 5% rat cortex homogenate
Sequence (P37136 32-614): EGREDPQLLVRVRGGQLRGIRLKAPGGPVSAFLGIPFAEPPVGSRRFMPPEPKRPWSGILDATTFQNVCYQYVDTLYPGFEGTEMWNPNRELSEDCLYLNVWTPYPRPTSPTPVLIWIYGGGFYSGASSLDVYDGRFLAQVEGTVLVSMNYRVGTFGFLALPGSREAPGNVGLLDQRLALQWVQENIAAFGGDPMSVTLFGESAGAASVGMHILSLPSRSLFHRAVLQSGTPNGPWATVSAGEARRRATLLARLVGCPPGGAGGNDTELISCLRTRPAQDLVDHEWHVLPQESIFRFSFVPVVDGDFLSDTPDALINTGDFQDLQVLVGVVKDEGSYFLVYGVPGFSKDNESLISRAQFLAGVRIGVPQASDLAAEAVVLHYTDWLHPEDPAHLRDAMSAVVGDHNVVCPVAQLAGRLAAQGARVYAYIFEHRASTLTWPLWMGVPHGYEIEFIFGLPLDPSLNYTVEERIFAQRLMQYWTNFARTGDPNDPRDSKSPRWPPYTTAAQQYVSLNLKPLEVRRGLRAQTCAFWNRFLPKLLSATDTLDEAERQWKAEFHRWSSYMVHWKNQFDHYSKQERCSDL
method: biochemical
test conditions: IC50 ± SD ratAChE, from 5% rat cortex homogenate
pIC50: −log10 of the molar value.

[Q] Request the reported pIC50 associated with O=C1CC(c2ccc(O)cc2)Oc2cc(O)cc(O)c21 (centres unmarked) [naringenin, reference compound]
[A] < 4.30

[Q] Next up: O=c1cc(-c2ccc(O)cc2)oc2cc(O)cc(O)c12 [apigenin, reference compound]
[A] < 4.30
